The origin of these recorded values is ChEMBL document CHEMBL4308907.

Target: UniProtKB P22748
Sequence (P22748 whole entry): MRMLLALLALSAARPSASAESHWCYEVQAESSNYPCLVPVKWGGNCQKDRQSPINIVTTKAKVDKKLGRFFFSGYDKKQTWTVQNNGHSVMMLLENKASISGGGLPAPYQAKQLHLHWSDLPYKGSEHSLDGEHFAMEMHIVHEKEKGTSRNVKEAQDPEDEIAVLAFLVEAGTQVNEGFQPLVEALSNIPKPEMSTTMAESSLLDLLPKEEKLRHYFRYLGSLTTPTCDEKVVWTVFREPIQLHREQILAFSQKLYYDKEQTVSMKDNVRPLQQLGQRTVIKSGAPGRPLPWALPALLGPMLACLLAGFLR
Experiment: Binding affinity to recombinant human CA4 by DSF-based fluorescence thermal shift assay
pKd: −log10 of the molar value.
# label = MET if pKd >= 6 else NOT MET

[
  {
    "Compound": "Cc1cc(N2CC(C(=O)O)CC2=O)cc(C)c1S(N)(=O)=O (stereo not drawn)",
    "Class name": "NOT MET"
  },
  {
    "Compound": "Cc1cc(N2CC(C(=O)NNC(=S)Nc3ccccc3)CC2=O)cc(C)c1S(N)(=O)=O (stereo not drawn)",
    "Class name": "NOT MET"
  },
  {
    "Compound": "Cc1cc(N2CC(C(=O)N/N=C/c3ccc(Cl)cc3)CC2=O)c(Cl)c(C)c1S(N)(=O)=O (stereo not drawn)",
    "Class name": "MET"
  },
  {
    "Compound": "Cc1cc(S(N)(=O)=O)c(C)cc1N1CC(C(=O)O)CC1=O (stereo not drawn)",
    "Class name": "NOT MET"
  },
  {
    "Compound": "NS(=O)(=O)c1ccc(N2CC(C(=O)O)CC2=O)cc1 (stereo not drawn)",
    "Class name": "NOT MET"
  },
  {
    "Compound": "Cc1cc(N2CC(C(=O)N/N=C/c3ccc(Br)cc3)CC2=O)c(Cl)c(C)c1S(N)(=O)=O (stereo not drawn)",
    "Class name": "MET"
  },
  {
    "Compound": "Cc1cc(N2CC(C(=O)N/N=C/c3ccc(Br)cc3)CC2=O)cc(C)c1S(N)(=O)=O (stereo not drawn)",
    "Class name": "NOT MET"
  },
  {
    "Compound": "Cc1cc(C)cc(N2CC(C(=O)O)CC2=O)c1 (stereo not drawn)",
    "Class name": "NOT MET"
  },
  {
    "Compound": "Cc1c(Br)c(N2CC(C(=O)N/N=C/c3ccccc3)CC2=O)c(Br)c(C)c1S(N)(=O)=O (stereo not drawn)",
    "Class name": "NOT MET"
  },
  {
    "Compound": "COC(=O)C1CC(=O)N(c2c(Br)c(C)c(S(N)(=O)=O)c(C)c2Br)C1 (stereo not drawn)",
    "Class name": "NOT MET"
  }
]

====

Molecular target: Carbonic anhydrase 5B, mitochondrial (Homo sapiens, UniProt Q9Y2D0)
Sequence (Q9Y2D0 whole entry): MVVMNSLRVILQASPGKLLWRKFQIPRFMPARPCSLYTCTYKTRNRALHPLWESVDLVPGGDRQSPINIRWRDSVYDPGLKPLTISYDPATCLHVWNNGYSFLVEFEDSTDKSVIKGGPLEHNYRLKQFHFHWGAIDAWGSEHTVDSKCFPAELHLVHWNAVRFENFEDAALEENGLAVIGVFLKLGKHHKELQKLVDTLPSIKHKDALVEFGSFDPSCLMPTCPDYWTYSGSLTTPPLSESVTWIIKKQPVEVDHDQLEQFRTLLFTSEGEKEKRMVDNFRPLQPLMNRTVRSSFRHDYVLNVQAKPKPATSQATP
Assay: Binding affinity to recombinant full length N-terminal His6x-tagged human CA5B expressed in Escherichia coli Rosetta 2 (DE3) by DSF-based fluorescence thermal shift assay
Observation type: Kd (nM)

[
  {
    "Compound": "Cc1cc(S(N)(=O)=O)c(C)cc1N1CC(C(=O)N/N=C/c2ccc([N+](=O)[O-])cc2)CC1=O (stereo unspecified)",
    "Observation type": "Kd",
    "Value units": "nM",
    "Inequality operator": "=",
    "Measured": 28
  },
  {
    "Compound": "NNC(=O)C1CC(=O)N(c2ccc(S(N)(=O)=O)cc2)C1 (stereo unspecified)",
    "Observation type": "Kd",
    "Value units": "nM",
    "Inequality operator": "=",
    "Measured": 10000
  },
  {
    "Compound": "Cc1cc(NCC(CC(=O)O)c2n[nH]c(=S)n2-c2ccccc2)c(Cl)c(C)c1S(N)(=O)=O (stereo unspecified)",
    "Observation type": "Kd",
    "Value units": "nM",
    "Inequality operator": "=",
    "Measured": 10000
  },
  {
    "Compound": "Cc1cc(N2CC(C(=O)O)CC2=O)cc(C)c1S(=O)(=O)Cl (stereo unspecified)",
    "Observation type": "Kd",
    "Value units": "nM",
    "Inequality operator": "≥",
    "Measured": 200000
  },
  {
    "Compound": "NS(=O)(=O)c1ccc(NC(=O)C2CC(=O)N(c3cccc(Br)c3)C2)cc1 (stereo unspecified)",
    "Observation type": "Kd",
    "Value units": "nM",
    "Inequality operator": "=",
    "Measured": 740
  },
  {
    "Compound": "COc1ccc(/C=N/NC(=O)C2CC(=O)N(c3cc(C)c(S(N)(=O)=O)c(C)c3)C2)cc1 (stereo unspecified)",
    "Observation type": "Kd",
    "Value units": "nM",
    "Inequality operator": "=",
    "Measured": 670
  }
]
